Measured values drawn from PubChem BioAssay (NCI) for this set.

- Test system: OVCAR-4 ovarian
- test.description: NCI-60 one-dose screen, 48 h (100 = growth as untreated, 0 = no growth, -100 = all killed)
- test.settings: 10 µM unless noted
About 83,000 compounds went through this panel and 20% of them were active in at least one assay; those are over-represented in the sample as a whole. Activity calls are given as the source filed them. The calls were made as follows: active = growth percent below 10; inactive = the rest.
value.type: growth

Query string: Recall and state the measured growth for CC[n+]1ccc(Nc2ccc(NC(=O)c3ccc(Nc4cc[n+](CC)c5ccc([N+](=O)[O-])cc45)cc3)cc2)cc1 .
Result string: 56.8% (inactive)

Query string: Recall and state the measured growth for Cc1cc(=O)oc2cc(O)cc(O)c12 .
Result string: 104% (inactive)

Query string: Recall and state the measured growth for CCOc1ccc(C(C[N+](=O)[O-])Sc2ccccc2N)cc1 (stereo not drawn) .
Result string: 83.1% (inactive)

---

- Tested on: IGROV1 ovarian
- test.description: NCI-60 one-dose screen, 48 h (100 = growth as untreated, 0 = no growth, -100 = all killed)
- test.settings: 10 µM unless noted
Compounds without any hit were thinned out: in the full panel of roughly 83,000, 20% have a hit. Calls of active or inactive are those of the source. The calls were made as follows: active = growth percent below 10; inactive = the rest.
value.type: growth

Take a look at these entries with their results.
> print(dat)
                                   molecule       tested.on  reported.measurement
1  CCC1CCCCN1C(=S)N/N=C(\C)c1ccccn1 (stereo unspecified)  IGROV1 ovarian        2.61% (active)
2              O=C1C=CC(=O)N1c1cccc2c1CCCC2  IGROV1 ovarian      97.5% (inactive)
3                     Nc1cc(-c2ccccc2)ccc1O  IGROV1 ovarian       115% (inactive)

Query string: Recall and state the measured growth for NC(=Nc1nc(-c2ccccn2)cc2ccccc12)c1ccccn1 .
Result string: -9.19% (active)

Query string: Recall and state the measured growth for O=C(O)c1cc2c(s1)C(=O)c1sccc1C2=O .
Result string: 56.3% (inactive)

Query string: Recall and state the measured growth for O=C(c1ccccc1)C(O)C(Br)(CBr)c1ccccc1 (stereo unspecified) .
Result string: 90.9% (inactive)

Query string: Recall and state the measured growth for COc1cc2c(c(OC)c1OC)-c1ccc(NCc3ccccc3)c(=O)cc1[C@@H](NC(C)=O)CC2 .
Result string: -15.6% (active)

Query string: Recall and state the measured growth for Cc1cc(C(=O)c2ccc(Cl)cc2)ccc1O .
Result string: 117% (inactive)

---

- Test system: OVCAR-3 ovarian
- test.description: NCI-60 one-dose screen, 48 h (100 = growth as untreated, 0 = no growth, -100 = all killed)
- test.settings: 10 µM unless noted
This is part of a sample that, as a whole, favours compounds with a hit. Of some 83,000 tested, about 20% had one in any assay.
This section presents compounds with their documented growth values.
// units = %; emit number, no label

> print(dat)
                                    compound  reported.measurement
 1  C[C@@]1(CO)[C@H](O)CC[C@@]2(C)[C@H]1CC[C@H]1C[C@@H]3C[C@@]12CC[C@@]3(O)COC(=O)CN                  70.9
 2  COc1ccc2nc3cc(Cl)ccc3c(NCCCCCN3CCCCC3)c2c1                 -21.8
 3  Cc1cc(C(=C2C=CC(=Nc3ccccc3)C=C2)c2ccc(Nc3ccccc3)cc2)ccc1N                 -93.7
 4  CCCCCCCCCCCC(=O)OC(C)C(=O)NCCCC (stereo not drawn)                   107
 5  CCC1C[N+]2=C(c3cc(OC)c(OC)cc3CC2)c2c1cc1n2CCc2cc(OC)c(OC)cc2-1 (stereo not drawn)                    10
 6  Cc1nc([N+](=O)[O-])c(Sc2nncc(-c3ccccc3)n2)n1C                  78.5
 7  COC1CC(C)C(OC)c2cc(O)cc(c2O)NC(=O)/C(C)=C/C=C\C(C)C(OC(N)=O)/C(C)=C\C(C)C1OC (stereo not drawn)                  20.2
 8                 O=C1C=CC(=O)N1c1ccc(O)cc1                   119
 9         CCCCCCN(CCCCCC)CCCNc1nccc2ccccc12                 -6.31
10  CCCC[n+]1c(/C=C\c2c(OC)cc(OC)cc2OC)ccc2ccccc21                 -16.7

Query string: Recall and state the measured growth for O=C(Cc1ccccc1)C(F)(F)F .
Result string: 101

Query string: Recall and state the measured growth for CCc1cnc2ccccc2c1/C=C/c1ccc(N(C)C)cc1 .
Result string: 16.9

Query string: Recall and state the measured growth for O=C1c2ccccc2C(=O)c2c(O)c(Cl)cc(O)c21 .
Result string: -17.9

---

- System: 786-0 renal
- test.description: NCI-60 one-dose screen, 48 h
- test.settings: 10 µM unless noted
Compounds without any hit were thinned out: in the full panel of roughly 83,000, 20% have a hit. Active and inactive are the calls of the source. The calls were made as follows: active = growth percent below 10; inactive = the rest.
Select the matching outcome among TRUE = active, FALSE = inactive

// known answers, use as guide
> print(dat)
                     molecule    tested.on    cat
1  NC1=C(Br)C(=O)c2ncccc2C1=O  786-0 renal  FALSE
2    Nc1ccc(Oc2ccccc2)c(Cl)c1  786-0 renal  FALSE

Query string: Returns: the outcome recorded for CN1CSC(=S)N(Cc2ccccc2)C1 in this assay.
Result string: FALSE

Query string: Returns: the outcome recorded for CN(C)c1ccc2cc3c(cc2c1)Oc1ccccc1N3.[Cl][Zn][Cl] in this assay.
Result string: FALSE

Query string: Returns: the outcome recorded for O=C(c1ccccc1)c1ccc(O)c2ncccc12 in this assay.
Result string: FALSE

Query string: Returns: the outcome recorded for S=C=Nc1ccc(N2CCOCC2)cc1 in this assay.
Result string: FALSE

Query string: Returns: the outcome recorded for Cc1cc(=O)oc2cc(O)cc(O)c12 in this assay.
Result string: FALSE

---

- Test system: DU-145 prostate
- test.description: NCI-60 one-dose screen, 48 h
- test.settings: 10 µM unless noted
The panel holds about 83,000 compounds, 20% with a hit somewhere; the sample as a whole holds those more often. Active and inactive are the calls of the source. Rule for the calls: active = growth percent below 10; inactive = the rest.
Select the matching outcome among yes = active, no = inactive

> print(dat)
                                   compound  cat
1                                  OCCOSCCO   no
2            Cc1cc(Br)c2nsnc2c1[N+](=O)[O-]   no
3  CCCCCC/C=C1\CCC(CN2CCCC2)C1=O (stereo unspecified)   no
4       O=[n+]1c2ccccc2n([O-])c2cc(Cl)ccc21   no
5  CCN(CC)CC(O)CNc1ccc(NCC2CO2)c2c1C(=O)c1ccccc1C2=O (stereo unspecified)  yes
6                 O=C(NNc1ccccc1)OCc1ccccc1   no

Query string: Returns: the outcome recorded for O=C(/C(Cl)=N/O)c1ccc(-c2ccccc2)cc1 in this assay.
Result string: no

Query string: Returns: the outcome recorded for CCC(C)(O)Cc1ccc(Cl)cc1 (stereo unspecified) in this assay.
Result string: no

Query string: Returns: the outcome recorded for CC(=O)N1CC(=O)NC1=S in this assay.
Result string: no

Query string: Returns: the outcome recorded for CC1=CC(=O)C=CC1(C)C(Cl)(Cl)Cl (stereo unspecified) in this assay.
Result string: no

Query string: Returns: the outcome recorded for Cc1ccc(N2C(=O)C=CC2=O)cc1 in this assay.
Result string: no

---

- Tested on: HOP-62 NSCLC
- test.description: NCI-60 one-dose screen, 48 h (100 = growth as untreated, 0 = no growth, -100 = all killed)
- test.settings: 10 µM unless noted
This is part of a sample that, as a whole, favours compounds with a hit. Of some 83,000 tested, about 20% had one in any assay.
This section presents compounds with their documented growth values.
// units = %; emit number, no label

Query string: Recall and state the measured growth for CC/C(=C(/CC)c1ccc(O)cc1)c1ccc(O)cc1 .
Result string: 70.8

Query string: Recall and state the measured growth for NC(=S)N/N=C/c1ncccc1O .
Result string: 17.8

Query string: Recall and state the measured growth for CCCCCCN(CCCCCC)CCCNc1nccc2ccccc12 .
Result string: 64.3

Query string: Recall and state the measured growth for CCC1C[N+]2=C(c3cc(OC)c(OC)cc3CC2)c2c1cc1n2CCc2cc(OC)c(OC)cc2-1 (configuration not stated) .
Result string: 55.9

Query string: Recall and state the measured growth for NC(=S)N/N=C\c1nccc2c(C(F)(F)F)cccc12 .
Result string: -5.75
